test system: Human immunodeficiency virus; test: In vitro antiviral activity against human immuno deficiency virus was determined; type: functional, organism-based; conditions: Human immunodeficiency virus 1
pIC50: −log10 of the molar value.
measureName: pIC50

CC(C)(C)NC(=O)[C@@H]1CCCCN1C[C@@H](O)[C@H](Cc1ccccc1)NC(=O)[C@H](CC(N)=O)NC(=O)c1ccc2ccccc2n1	7.77

I = CC(C)(C)NC(=O)[C@@H]1CCCC[C@@H]1C[C@@H](O)[C@H](Cc1ccccc1)NC(=O)[C@H](CC(N)=O)NC(=O)OCc1ccccc1
II = CC(C)(C)NC(=O)[C@@H]1CCCC[C@H]1C[C@@H](O)[C@H](Cc1ccccc1)NC(=O)[C@H](CC(N)=O)NC(=O)c1ccc2ccccc2n1
III = CC(C)(C)NC(=O)[C@@H]1CCCC[C@H]1C[C@@H](O)[C@H](Cc1ccccc1)NC(=O)[C@H](CC(N)=O)NC(=O)OCc1ccccc1 (mixture of isomers)
Prompt line: Endpoint returns the given compounds ordered by ascending pIC50. Put the labels in the requested order and list them out.
Response line: I, III, II
